- System: SF-295 CNS
- assay summary: NCI tumour cell line growth inhibition, 48 h

compound: C/C(=N\NC(=S)N1CC2CCC(CC2)C1)c1ccccn1
TGI: 2.08 µM

compound: CC1(C)OC2CC(=O)OCC23C1CC(=O)C1(C)C3CCC2(C)C(c3ccoc3)OC(=O)C3OC321 (centres undefined)
TGI: > 125 µM

compound: CCOC(=O)C1(C(=O)OCC)CCCN1C(=O)[C@H](CNC(=O)OC(C)(C)C)NC(=O)OCc1ccccc1
TGI: > 100 µM

compound: CCOC(=O)C(C)c1nc2c(Cl)c3ncccc3cc2[nH]c1=O (centres undefined)
TGI: > 100 µM
